Data origin, for the record: paper PMC7915765

# testedSystem: HTLV-2 PR (Human T-cell leukemia virus 2)
# Sequence (P03363 447-571): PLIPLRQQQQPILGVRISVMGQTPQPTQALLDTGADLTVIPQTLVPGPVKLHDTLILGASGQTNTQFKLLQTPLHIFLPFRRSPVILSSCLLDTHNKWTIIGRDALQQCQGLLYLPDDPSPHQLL
# testName: Protease activity assay with oligopeptide substrates (RP-HPLC), HTLV-2 PR
# Type: biochemical, human T-cell leukemia virus type 2
# Parameters: made in house; host or cells: E. coli BL21(DE3)
# conditionsUsed: cleavage sites of viruses other than HTLV, pH 5.6, 37 °C, longer incubation time (24 h) also applied
measuredAttribute: kcat/KM

| substance | testedSystem | observedValue |
| --- | --- | --- |
| PRSSLY*PALTP [MuLV MA/P12, oligopeptide substrate PRSSLY*PALTP] | HTLV-2 PR (Human T-cell leukemia virus 2) | not cleaved |
| PPVGFAG*AMA [MMTV P8/N, oligopeptide substrate PPVGFAG*AMA] | HTLV-2 PR (Human T-cell leukemia virus 2) | not cleaved |
| IQPLIM*AVVNR [RSV P3/NC, oligopeptide substrate IQPLIM*AVVNR] | HTLV-2 PR (Human T-cell leukemia virus 2) | not cleaved |
| TQTSLL*TLDDQ [MuLV NC/PR, oligopeptide substrate TQTSLL*TLDDQ] | HTLV-2 PR (Human T-cell leukemia virus 2) | not cleaved |
| KQPAIL*VHTPG [BLV CA/NC, oligopeptide substrate KQPAIL*VHTPG] | HTLV-2 PR (Human T-cell leukemia virus 2) | not cleaved |
| LTFTF*PVVFMRR [MMTV N/CA, oligopeptide substrate LTFTF*PVVFMRR] | HTLV-2 PR (Human T-cell leukemia virus 2) | not cleaved |

Could you now look at the following substance, please?
## Input Which value of kcat/KM has been reported for SDLVL*LSAEARR [MMTV MA/PP21, oligopeptide substrate SDLVL*LSAEARR] in the records?
## Output not cleaved
